- measuredOn: UniProt P33261
- Sequence (P33261 whole entry): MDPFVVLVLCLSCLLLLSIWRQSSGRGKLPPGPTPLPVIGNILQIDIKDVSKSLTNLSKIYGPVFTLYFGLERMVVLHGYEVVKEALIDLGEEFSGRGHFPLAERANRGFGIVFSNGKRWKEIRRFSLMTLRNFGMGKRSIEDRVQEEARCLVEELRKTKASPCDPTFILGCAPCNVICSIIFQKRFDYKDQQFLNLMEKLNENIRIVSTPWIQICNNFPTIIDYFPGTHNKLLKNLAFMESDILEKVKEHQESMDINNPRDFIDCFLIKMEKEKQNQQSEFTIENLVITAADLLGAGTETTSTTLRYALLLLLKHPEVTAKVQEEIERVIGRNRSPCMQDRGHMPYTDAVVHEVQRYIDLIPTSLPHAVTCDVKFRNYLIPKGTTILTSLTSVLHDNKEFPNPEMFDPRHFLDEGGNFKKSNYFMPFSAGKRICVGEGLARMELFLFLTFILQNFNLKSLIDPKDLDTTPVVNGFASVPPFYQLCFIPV
pIC50: −log10 of the molar value.
readoutName: pIC50

Tell us which pIC50 value is on record for `CN1CC[C@H](c2c(O)cc(O)c3c(=O)cc(/C=C/c4c(Cl)cccc4Cl)oc23)[C@H](O)C1`
< 4.70

* * *

- protocolText: Cmax in Sprague-Dawley rat at 3 mg/kg, po by LC-MS/MS analysis
- Assay type: ADME, organism-based
- Design: dose 3 mg/kg, route oral
- conditionDescription: in vivo
readoutName: Cmax (nM)
Answers are plain numbers, in nM.

Tell me its Cmax given `CN1CC[C@H](c2c(O)cc(O)c3c(=O)cc(/C=C/c4c(Cl)cccc4Cl)oc23)[C@H](O)C1` as the entry.
316
